B1: HDV Ribozyme (parent)
chain: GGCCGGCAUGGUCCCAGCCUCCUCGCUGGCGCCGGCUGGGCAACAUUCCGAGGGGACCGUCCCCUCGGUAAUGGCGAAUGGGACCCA

- Variants of: B1
- assay_overview: self-cleavage, relative activity (ratio to wild type); higher = more cleavage; co-transcriptional
self-cleavage for assorted variants

alteration	self-cleavage
C58A C66A	0.959
C30G C64A	0.0361
C22G G55A	0.0723
G25A	0.24
A42C G54C	0.269
U72A C85A	0.399
C14G C49A	0.35
C21A G80U	0.0622
U9A G55C	1.26
G55A C75A	0.254
A43G A45U	0.584
A45G G59C	1.02
C14U G39A	0.284
A8G C30G	0.128
G5C C49U	0.0755
G68U U79C	0.415
G29U U79C	0.122
G28A C44U	0.215
C14G G81U	0.923
A16U A78U	0.332
C33G C63G	0.369
C41A U47A	0.689
C30A G55C	0.653
A45U G53U	0.997
C49G C58U	1.05
C62U G76A	1.12
G1A G55C	0.115
U27C G52U	1.01
G31A G39A	0.257
G11A A78G	0.193
G34U A71U	0.208

Origin of values: the RNAGym collection of RNA variant scans (doi:10.7554/elife.80360)
